The values you see were collected from patent US20060084688A1.

biological target: recombinant human MMP-2 (Homo sapiens); experiment: biochemical; settings: Inhibition Table B
Sequence (P08253 110-660): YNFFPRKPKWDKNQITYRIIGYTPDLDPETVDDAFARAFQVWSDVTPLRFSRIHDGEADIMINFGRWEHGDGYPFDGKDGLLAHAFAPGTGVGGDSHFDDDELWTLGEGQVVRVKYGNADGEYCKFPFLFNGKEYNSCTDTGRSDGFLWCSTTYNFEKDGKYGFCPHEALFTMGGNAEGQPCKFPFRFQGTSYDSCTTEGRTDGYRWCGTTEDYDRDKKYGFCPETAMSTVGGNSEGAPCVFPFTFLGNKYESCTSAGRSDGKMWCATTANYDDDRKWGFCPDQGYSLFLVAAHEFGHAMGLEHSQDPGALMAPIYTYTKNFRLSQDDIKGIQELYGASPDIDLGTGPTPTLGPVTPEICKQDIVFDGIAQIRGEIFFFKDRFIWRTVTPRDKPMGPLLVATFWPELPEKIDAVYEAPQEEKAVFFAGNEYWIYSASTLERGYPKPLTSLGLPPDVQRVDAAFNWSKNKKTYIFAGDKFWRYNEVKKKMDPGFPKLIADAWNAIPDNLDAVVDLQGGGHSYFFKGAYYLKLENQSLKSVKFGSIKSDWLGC
Counter-ions that a name gives are not always drawn.
Entries whose IC50 is below 200 nM take 1; entries at or above 200 nM take 0.

molecule	target_or_system	class_name
O=C(C1CCCCCC1)N1CCN(c2ccc(S(=O)(=O)C3(C(=O)NO)CCOCC3)cc2)CC1 [Example 202]	recombinant human MMP-2 (Homo sapiens)	1
O=C(NC1CCc2ccccc21)C1CCN(c2ccc(S(=O)(=O)C3(C(=O)NO)CCOCC3)cc2)CC1 (stereo not shown) [Example 188]	recombinant human MMP-2 (Homo sapiens)	0
O=C(C1CCN(c2ccc(S(=O)(=O)C3(C(=O)NO)CCOCC3)cc2)CC1)N1CCCCC1 [Example 149]	recombinant human MMP-2 (Homo sapiens)	0
CCN(CC)C(=O)C1CCN(c2ccc(S(=O)(=O)C3(C(=O)NO)CCOCC3)cc2)CC1 [Example 148]	recombinant human MMP-2 (Homo sapiens)	0
CN(C)C(=O)C1CCCN(c2ccc(S(=O)(=O)C3(C(=O)NO)CCOCC3)cc2)C1 (stereo not shown) [Example 155]	recombinant human MMP-2 (Homo sapiens)	0
C#CCN1CCC(C(=O)NO)(S(=O)(=O)c2ccc(Sc3ccc(Cl)cc3)cc2)CC1 [Example 44b, monohydrochloride]	recombinant human MMP-2 (Homo sapiens)	0
O=C(C1CCCN(c2ccc(S(=O)(=O)C3(C(=O)NO)CCOCC3)cc2)C1)N1CCCC1 (stereo not shown) [Example 172]	recombinant human MMP-2 (Homo sapiens)	0
O=C(C1CCN(c2ccc(S(=O)(=O)C3(C(=O)NO)CCOCC3)cc2)CC1)N1CCCC1 [Example 179]	recombinant human MMP-2 (Homo sapiens)	0
O=C(C1CCCN(c2ccc(S(=O)(=O)C3(C(=O)NO)CCOCC3)cc2)C1)N1CCCC2CCCCC21 (stereo not shown) [Example 170]	recombinant human MMP-2 (Homo sapiens)	0
CC(C)NC(=O)C1CCN(c2ccc(S(=O)(=O)C3(C(=O)NO)CCOCC3)cc2)CC1 [Example 184]	recombinant human MMP-2 (Homo sapiens)	1
C=CCN(CC=C)C(=O)C1CCN(c2ccc(S(=O)(=O)C3(C(=O)NO)CCOCC3)cc2)CC1 [Example 182]	recombinant human MMP-2 (Homo sapiens)	0
O=C(O)CNC(=O)C1CCCN(c2ccc(S(=O)(=O)C3(C(=O)NO)CCOCC3)cc2)C1 (stereo not shown) [Example 144]	recombinant human MMP-2 (Homo sapiens)	0

---

Reported pIC50 is given for each of the following compounds.
target: recombinant human MMP-13 (Homo sapiens, UniProt P45452); assay: biochemical; settings: Inhibition Table B
pIC50: −log10 of the molar value. Counter-ions that a name gives are not always drawn.
quantity_kind: pIC50

compound	value_relation_sign	readout_value
O=C(NO)C1CCN(c2ccc(S(=O)(=O)C3(C(=O)NO)CCOCC3)cc2)CC1 [Example 137]	=	7.46
O=C(NO)C1(S(=O)(=O)c2ccc(-c3cccc([N+](=O)[O-])c3)cc2)CCOCC1 [Example 214]	>	9.00
N[C@H]1CCN(C(=O)C2CCCN(c3ccc(S(=O)(=O)C4(C(=O)NO)CCOCC4)cc3)C2)C1 (stereo partly drawn) [Example 168]	<	7.00
O=C(NO)C1(S(=O)(=O)c2ccc(-c3ccc(Cl)cc3)cc2)CCOCC1 [Example 216]	>	9.00
O=C(C1CCN(c2ccc(S(=O)(=O)C3(C(=O)NO)CCOCC3)cc2)CC1)N1CCNCC1 [Example 151]	=	7.46
O=C(O)CNC(=O)C1CCN(c2ccc(S(=O)(=O)C3(C(=O)NO)CCOCC3)cc2)CC1 [Example 135]	=	7.19
CN(C)C(=O)C1CCN(c2ccc(S(=O)(=O)C3(C(=O)NO)CCOCC3)cc2)CC1 [Example 147]	=	7.51
NCCCNC(=O)C1CCN(c2ccc(S(=O)(=O)C3(C(=O)NO)CCOCC3)cc2)CC1 [Example 133]	=	7.57
C[C@@H]1CN(C(=O)C2CCCN(c3ccc(S(=O)(=O)C4(C(=O)NO)CCOCC4)cc3)C2)C[C@H](C)O1 (stereo partly drawn) [Example 169]	<	7.00
O=C(NO)C1(S(=O)(=O)c2ccc(-c3ccc(C(F)(F)F)cc3)cc2)CCOCC1 [Example 221]	>	9.00
O=C(NCc1ccccn1)C1CCN(c2ccc(S(=O)(=O)C3(C(=O)NO)CCOCC3)cc2)CC1 [Example 196]	=	7.60
O=C(C1CCN(c2ccc(S(=O)(=O)C3(C(=O)NO)CCOCC3)cc2)CC1)N1CCC(N2CCCC2)CC1 [Example 178]	<	7.00
O=C(C1CCN(c2ccc(S(=O)(=O)C3(C(=O)NO)CCOCC3)cc2)CC1)N1CCC(Cc2ccccc2)CC1 [Example 191]	=	8.40
O=C(NO)C1CCCN(c2ccc(S(=O)(=O)C3(C(=O)NO)CCOCC3)cc2)C1 (stereo not drawn) [Example 146]	=	7.49
CCOC(=O)C1CCCCN1C(=O)C1CCCN(c2ccc(S(=O)(=O)C3(C(=O)NO)CCOCC3)cc2)C1 (stereo not drawn) [Example 161]	<	7.00
O=C(C1CCN(c2ccc(S(=O)(=O)C3(C(=O)NO)CCOCC3)cc2)CC1)N1CCCCCC1 [Example 165]	=	7.87
O=C(C1CCCCCC1)N1CCN(c2ccc(S(=O)(=O)C3(C(=O)NO)CCOCC3)cc2)CC1 [Example 202]	=	8.04
C#CCN1CCC(C(=O)NO)(S(=O)(=O)c2ccc(Sc3ccc(Cl)cc3)cc2)CC1 [Example 44b, monohydrochloride]	<	5.00
O=C(NCc1cccs1)C1CCN(c2ccc(S(=O)(=O)C3(C(=O)NO)CCOCC3)cc2)CC1 [Example 189]	=	8.10
CCOC(=O)C1CCCN(C(=O)C2CCN(c3ccc(S(=O)(=O)C4(C(=O)NO)CCOCC4)cc3)CC2)C1 (stereo not drawn) [Example 153]	=	7.87
O=C(C1CCN(c2ccc(S(=O)(=O)C3(C(=O)NO)CCOCC3)cc2)CC1)N1CCC(c2ccccc2)CC1 [Example 192]	=	8.00
O=C(C1CCN(c2ccc(S(=O)(=O)C3(C(=O)NO)CCOCC3)cc2)CC1)N1CCC(O)(Cc2ccccc2)CC1 [Example 193]	=	8.22
NCCCNC(=O)C1CCCN(c2ccc(S(=O)(=O)C3(C(=O)NO)CCOCC3)cc2)C1 (stereo not drawn) [Example 142]	=	7.15
CNC(=O)C1CCCN(c2ccc(S(=O)(=O)C3(C(=O)NO)CCOCC3)cc2)C1 (stereo not drawn) [Example 139]	=	7.60
O=C(C1CCCN(c2ccc(S(=O)(=O)C3(C(=O)NO)CCOCC3)cc2)C1)N1CCOCC1 (stereo not drawn) [Example 140]	=	7.22
O=C(C1CCN(c2ccc(S(=O)(=O)C3(C(=O)NO)CCOCC3)cc2)CC1)N1CCCC2CCCCC21 (stereo not drawn) [Example 177]	=	7.68
O=C(C1CCCN(c2ccc(S(=O)(=O)C3(C(=O)NO)CCOCC3)cc2)C1)N1CCCCC1 (stereo not drawn) [Example 156]	=	7.56
O=C(C1CCCN(c2ccc(S(=O)(=O)C3(C(=O)NO)CCOCC3)cc2)C1)N1CCCCCC1 (stereo not drawn) [Example 162]	<	7.00
O=C(NC1CCCCCC1)C1CCN(c2ccc(S(=O)(=O)C3(C(=O)NO)CCOCC3)cc2)CC1 [Example 194]	=	8.10
O=C(NO)C1(S(=O)(=O)c2ccc(-c3cc4ccccc4o3)cc2)CCOCC1 [Example 229]	>	9.00

---

details: rat, in vivo, po, 20 mg/kg

structure	Blood Level @ 6 hr
O=C(NO)C1(S(=O)(=O)c2ccc(Oc3ccc(OC(F)(F)F)cc3)cc2)CCOCC1	1172 ng/mL
Cl.O=C(NO)C1(S(=O)(=O)c2ccc(Oc3ccc4c(c3)OCO4)cc2)CCN(C2CC2)CC1	206 ng/mL
CC(=O)N1CCC(C(=O)NO)(S(=O)(=O)c2ccc(Oc3ccccc3)cc2)CC1	121 ng/mL
Cl.O=C(NO)C1(S(=O)(=O)c2ccc(Oc3ccccc3)cc2)CCN(C2CC2)CC1	135 ng/mL

---

Reported IC50 is given for each of the following molecules.
target: recombinant human MMP-13 (Homo sapiens); assay: biochemical; conditions: Inhibition Table B
quantity_kind: IC50 (nM)

molecule	value_relation_sign	readout_value
O=C(C1CCCN(c2ccc(S(=O)(=O)C3(C(=O)NO)CCOCC3)cc2)C1)N1CCC(O)C1 (centres unmarked)	>	100
O=C(C1CCN(c2ccc(S(=O)(=O)C3(C(=O)NO)CCOCC3)cc2)CC1)N1CCc2ccccc2C1	=	1.4
O=C(O)CNC(=O)C1CCCN(c2ccc(S(=O)(=O)C3(C(=O)NO)CCOCC3)cc2)C1 (centres unmarked)	=	30.7
Cc1cc(Oc2ccc(S(=O)(=O)C3(C(=O)NO)CCNCC3)cc2)ccc1Cl.Cl [Example 79, monohydrochloride]	=	1.7
CC(C)[C@H](N)C(=O)N1CCN(c2ccc(S(=O)(=O)C3(C(=O)NO)CCOCC3)cc2)CC1	=	27.1
CNC(=O)C1CCN(c2ccc(S(=O)(=O)C3(C(=O)NO)CCOCC3)cc2)CC1	=	45.9
CCOC(=O)C1CCCN(C(=O)N2CCN(c3ccc(S(=O)(=O)C4(C(=O)NO)CCOCC4)cc3)CC2)C1 (centres unmarked)	=	20
O=C(C1CCCN(c2ccc(S(=O)(=O)C3(C(=O)NO)CCOCC3)cc2)C1)N1CCC(N2CCCC2)CC1 (centres unmarked)	>	100
C[C@@H]1CN(C(=O)C2CCN(c3ccc(S(=O)(=O)C4(C(=O)NO)CCOCC4)cc3)CC2)C[C@H](C)O1	=	25
O=C(C1CCN(c2ccc(S(=O)(=O)C3(C(=O)NO)CCOCC3)cc2)CC1)N1CCC(O)C1 (centres unmarked)	>	100
CC(C)NC(=O)C1CCN(c2ccc(S(=O)(=O)C3(C(=O)NO)CCOCC3)cc2)CC1	=	7
CN1CCN(C(=O)N2CCN(c3ccc(S(=O)(=O)C4(C(=O)NO)CCOCC4)cc3)CC2)CC1	=	20
O=C(NCCO)C1CCCN(c2ccc(S(=O)(=O)C3(C(=O)NO)CCOCC3)cc2)C1 (centres unmarked)	>	100
O=C(NC1CCCCC1)C1CCN(c2ccc(S(=O)(=O)C3(C(=O)NO)CCOCC3)cc2)CC1	=	12.1
